target-desc: SARS-CoV-2 S1+S2 (40589-V08B1, Sino Biological) (SARS-CoV-2, UniProt P0DTC2 16-1213)
assay-procedure: ELISA on coated protein, anti-human IgG-HRP; AUC of the OD
assay-endpoint: Binding AUC

| binder | assay-endpoint | measured |
| --- | --- | --- |
| 1246H7 (antibody, V domains shown) VH: QVQLQQSGPGLMKPSETLSLTCTVSGGSISSSSYYWGWIRQPPGKGLEWIGSIYYSGATYYNPSLKSRVTISVDTSKNQLSLKLSSVTAADTAVYYCVNRYYDYVWGSWGVDCWGQGTLVTVSS VL: QAGLTQPRSVSGSPGQSVTISCTGTSSDVGGYNYVSWYQQHPGKAPKLMIYDVNKRPSGVPDRFSGSKSGNTASLTISGLQAEDEADYFCCSYAGSYTYWVFGGGTKLTVL | Binding AUC | 5 |
| 1242F4 (antibody, V domains shown, Recombinant human IgG1) VH: EVQLVQSGAEVKKPGTSVKVSCKASGNTVADYYMHWVRQAPRQGLEWVGLINPSGSGTAYAQNFQGRVTLTRDTSTSTLYMELGSLGSEDTAIYYCARMDSSGTYDVWGQGTLVTVSS VL: EIVLTQSPGTLSLSPGERATLSCRASQSIRSGYLAWYQQKPGQAPRLLIRGASVKATGIPDRFSGSGSGTDFTLTISRLEPEDFVVYYCQHFASSPPRYTFGQGTKLEIK | Binding AUC | 27 |

The measurements presented in this section are drawn from patent US20240270828A1.
